Test system: M14 melanoma
assay_remarks: NCI-60 one-dose screen, 48 h
measurement_context: 10 µM unless noted
Compounds without any hit were thinned out: in the full panel of roughly 83,000, 20% have a hit. The source made the active and inactive calls. How the source made its calls: active means growth percent below 10; inactive means the rest.
Labels: active, inactive

| molecule | assigned_class |
| --- | --- |
| COc1cc(/C=C/C(=O)/C=C/c2cc3ccc(Cl)cc3n(Cc3ccccc3)c2=O)ccc1O | active |
| CCCCc1nc(Cl)c(C2CC(c3ccc(Cl)cc3)=NN2c2cc(Cl)cc(Cl)c2)[nH]1 (stereo not drawn) | inactive |
| Cc1cc(C)nc(NS(=O)(=O)c2ccc(Nc3ccc4c5c(n(CCCN(C)C)c(=O)c4c3)-c3ccccc3C5=O)cc2)n1 | inactive |
| COc1cc(N=Nc2cc(S(=O)(=O)O)cc3cc(S(=O)(=O)O)cc(O)c23)c(C)cc1N=Nc1c(S(=O)(=O)O)cc2cc(Nc3ccccc3)ccc2c1O | inactive |
| CC(C)(C#N)c1cc(F)cc(C(=O)Nc2cc(Nc3ncccc3-c3ncnc4nc[nH]c34)ccc2F)c1 | active |
| CC(=O)Nc1c(C(=O)Nc2ccccc2)sc2nc3c(cc12)C(OC(C)=O)CCC3 (stereo not drawn) | inactive |
| O=C(CCl)N1CCCc2ccccc21 | inactive |
| C#CCOC(=O)[C@]1(C)CCC[C@]2(C)[C@H]3C[C@H]4C(C(C)C)=C[C@]3(CC[C@H]21)[C@@H]1C(=O)CCC(=O)[C@@H]14 | inactive |

---

Reported growth is given for each of the following compounds.
Test system: SNB-19 CNS
assay_remarks: NCI-60 one-dose screen, 48 h (100 = growth as untreated, 0 = no growth, -100 = all killed)
measurement_context: 10 µM unless noted
The panel holds about 83,000 compounds, 20% with a hit somewhere; the sample as a whole holds those more often.

| chemical_structure | growth / % |
| --- | --- |
| CC1(C)[C@@H](O)CC[C@]2(C)[C@H]3CC[C@@H]4[C@H]5[C@H](c6cn(-c7ccccc7)nn6)CC[C@]5(CO)CC[C@@]4(C)[C@]3(C)CC[C@@H]12 | 93.1 |
| Cc1ccc(C2=N[C@H]3CCC[C@@H]3N(c3ccccc3)C(C(Cl)Cl)=N2)cc1 | 113 |
| COc1ccc2oc(=O)cc(-c3c(C#N)c(N)n4nc(N)c(C#N)c4c3C#N)c2c1 | 112 |
| Nc1cc(N)c(S(=O)(=O)O)cc1N=Nc1cc([N+](=O)[O-])ccc1O | 98.8 |

---

Tested on: CCRF-CEM leukemia
assay_remarks: NCI-60 one-dose screen, 48 h
measurement_context: 10 µM unless noted
About 83,000 compounds went through this panel and 20% of them were active in at least one assay; those are over-represented in the sample as a whole. Calls of active or inactive are those of the source. How the source made its calls: active means growth percent below 10; inactive means the rest.
Labels: active, inactive

| molecule | assigned_class |
| --- | --- |
| N#Cc1c(-c2ccc(F)cc2)nc(N=Nc2c(O)[nH]c3ccc(Cl)cc23)nc1N1CCOCC1 | inactive |
| CCN(CC)c1ccc2c(c1)Oc1nc(N)c(C#N)c(N)c1C2Sc1ccc(OC)cc1 (stereo not given) | active |
| O=C1NCc2ccc3c(-c4cccc(Cl)c4)c[nH]c3c21 | inactive |
| NCCN1CCNCC1 | inactive |
| Nc1ccc2c(c1)C(=O)C(=O)c1c-2nc2ccccn12 | inactive |
| CNC(=O)c1cc(Oc2ccc3c(c2)sc2nc(-c4ccc(NC(C)=O)cc4)cn23)ccn1 | inactive |
| Nc1ccc(C2=NN(C(=O)c3cc(-c4ccc(Cl)cc4)nc4ccccc34)C(c3ccc(Cl)cc3)C2)cc1 (stereo not given) | inactive |
| Cc1nc2sc(C(=O)Nc3cccc4ccccc34)c(N)c2cc1C(C)O (stereo not given) | active |
| Nc1c(C(=O)Nc2ccccc2Cl)sc2nc3c(cc12)CN(Cc1ccccc1)CC3 | inactive |
| CC(=O)c1ccc(NC(=O)CSc2nnc(-c3cc(-c4ccc(Cl)cc4)nc4ccccc34)o2)cc1 | inactive |

These entries and their values trace back to PubChem BioAssay (NCI).
